Test system: Plasmodium falciparum
Protocol notes: GSK_TCMDC: Inhibition of Plasmodium falciparum Dd2 in whole red blood cells, using parasite LDH activity as an index of growth. Test compounds present at 2uM
Format: functional
For each record, write down the corresponding Inhibition.
Answers are plain numbers, in %.

Take a look at these entries with their results.
[
  {
    "Compound": "COc1c(CNCCCCCCNCc2cc(Cl)c3ccccc3c2OC)cc(Cl)c2ccccc12.CS(=O)(=O)O",
    "Unit abbrev": "%",
    "Test value": 45
  },
  {
    "Compound": "COc1cccc(NC(=O)NC2CCN(c3ccnc(Nc4ccc(F)cc4)n3)C2)c1 (centres undefined)",
    "Unit abbrev": "%",
    "Test value": 71
  },
  {
    "Compound": "CC[C@H](C)CNC(=O)c1ccnc(-c2cccc(CN3CCC(N4CCCC4)CC3)c2)c1.O=C(O)C(F)(F)F",
    "Unit abbrev": "%",
    "Test value": 12
  }
]

Dear colleague, could you please provide Inhibition for the compounds listed below?
1. O=C(NCC1CCN(Cc2cccc(C(F)(F)F)c2)C1)c1cc(-c2cccc(Cl)c2)cs1.O=C(O)C(F)(F)F (centres undefined)
2. Cc1cc(Nc2cccc(Cl)c2)nc2ccc(NC(=O)c3ccc(=O)[nH]c3)cc12
3. CCOC(=O)C(C(C)=O)C(c1ccccc1)C(C(C)=O)C(=O)OCC (centres undefined)
4. COc1ccc(-c2ccc(NC(=O)c3ccc(C#N)cc3)c(F)c2)cc1CN(C)CCN(C)C.O=C(O)C(F)(F)F
5. O=C(Nc1cccc(C(F)(F)F)c1)NC1CCN(c2ccnc3cc(Cl)ccc23)CC1.O=C(O)C(F)(F)F
6. Br.CC(=O)Nc1nc(C)c(-c2csc(Nc3ccc(Cl)cc3)n2)s1
7. CC(C)COc1ccc(Cl)cc1Cc1nc(-c2nc3cccc(CN4CCN(C)CC4)c3[nH]2)cs1

Result:
1: 14; 2: 23; 3: 14; 4: 0; 5: 47; 6: 93; 7: 30

----------
Test system: Plasmodium falciparum
Protocol notes: GSK_TCMDC: Inhibition of Plasmodium falciparum 3D7 in whole red blood cells, using parasite LDH activity as an index of growth. Test compounds present at 2uM
Assay type: functional
Threshold-based label: Inhibition under 90% gives true, Inhibition not under 90% gives false.

Field: example entries. Status: answers known.
[
  {
    "Compound": "Cc1ncccc1C(=O)Nc1cccc(-c2cccc(-c3nc4cccc(C)c4[nH]3)c2)c1",
    "Qualitative label": "false"
  },
  {
    "Compound": "CCOC(=O)c1ccc(NC(=O)Nc2cccc(-c3ccc(-c4nc5cc(F)ccc5[nH]4)cc3)c2)cc1",
    "Qualitative label": "false"
  },
  {
    "Compound": "Cc1cc(N[C@@H](Cc2ccccc2)C(=O)NCCOc2ccccc2)nc(NCCOc2ccccc2)n1.O=C(O)C(F)(F)F",
    "Qualitative label": "false"
  },
  {
    "Compound": "CCOP(=O)(OCC)c1ccc(OC)c(-c2ccc[nH]2)c1",
    "Qualitative label": "false"
  },
  {
    "Compound": "CS(=O)(=O)c1ccc(CCNCc2ccc(-c3ccc(CN(C(=O)c4ccco4)C4CCN(Cc5ccccc5)CC4)cc3)nc2)cc1.O=C(O)C(F)(F)F",
    "Qualitative label": "true"
  }
]

Query: For CCCCCCc1c(C)nc2cc(OC)ccc2c1O , is the recorded Inhibition below the cut-off of 90%?
Result: false

Query: Bench note: check whether Cc1ccc(NC(=O)c2ccc(C(=O)NC3CCN(CC4CCCCC4)CC3)cc2)cc1.O=C(O)C(F)(F)F shows Inhibition below 90%
Result: false

Query: is_below(Inhibition, 90%) for CCN1CCN(c2cc(C)c3cc(NC(=O)c4ccc(C(C)(C)C)cc4)ccc3n2)CC1 ?
Result: true

Query: Could you please tell me whether Inhibition recorded for CCC(CC)N1CCN(CC(=O)Nc2ccc([N+](=O)[O-])cc2C(=O)Nc2cccc(OC)c2)CC1 is less than 90%?
Result: false

Query: I wonder whether OC(CNCc1cccc(Oc2ccc(Cl)cc2)c1)c1cccc(C(F)(F)F)c1 (stereo not drawn) has Inhibition below 90%. Can you tell?
Result: false

Query: For this compound, is Inhibition lower than 90%? CC1CCc2sc(-c3nnc(SC(C)C(=O)N4CCCC4)o3)cc2C1 (stereo not drawn)
Result: false

Query: Please indicate whether the reported Inhibition of CN1CCN(c2ccc3[nH]c(-c4ccc(Cc5cc(Cl)ccc5OCc5ccccc5)o4)nc3c2)CC1.Cl is strictly below 90%.
Result: false

Query: In the record for COc1c(C)cc(I)cc1CNCCCNc1cc(=O)c2ccccc2[nH]1 , is Inhibition less than 90%?
Result: true

Query: Does the reported Inhibition of O=C(NCC1CCN(Cc2cccc(C(F)(F)F)c2)C1)c1cc(-c2cccc(Cl)c2)cs1.O=C(O)C(F)(F)F (stereo not drawn) stay below 90%?
Result: false

Query: Regarding CC(=O)Oc1cc(OCc2ccccc2)c(OC(C)=O)c(OCc2ccccc2)c1 , kindly confirm whether its Inhibition is beneath 90%.
Result: false

Query: Please indicate whether the reported Inhibition of CCc1cn2c3c(cc(C(=O)N[C@@H](Cc4ccccc4)[C@H](O)CNC(C)(C)CCCC(C)C)cc13)N(C)S(=O)(=O)C2.O=CO is strictly below 90%.
Result: false

Query: Is it true that Inhibition reported for CN(C)CCCN1C(=O)c2[nH]nc(-c3ccc(Cl)cc3O)c2C1c1ccc(Cl)cc1 (stereo not drawn) is less than 90%?
Result: false

Query: Item Cc1cc(N[C@@H](CC(C)C)C(=O)NCCc2ccccc2)nc(NCCc2ccc(F)cc2)n1.O=C(O)C(F)(F)F : Inhibition beneath 90%, strictly?
Result: false

Query: Say whether its Inhibition is strictly beneath 90%. Entry: CCCN1CCN(Cc2ccc(-c3ccc(-c4nc5ccccc5[nH]4)s3)cc2)CC1
Result: false

Query: Regarding Cl.O=c1n(CC2CCCCC2)c2cc(Cl)cc(OCCNc3ccncc3)c2n1CC1CCCCC1 , kindly confirm whether its Inhibition is beneath 90%.
Result: false

Query: hey, is Inhibition for Cl.NC1=NC2(CCCCC2)N(Cc2ccc(Cl)c(Cl)c2)C(N)=N1 lower than 90% or not?
Result: true

Query: Is Inhibition strictly under 90% for the entry COc1ccc2ncc(Cl)c(CCN3CCC(NCc4ccc5c(n4)NC(=O)CS5)CC3)c2c1.Cl ?
Result: false
